Form: system (UniProt:P35372), quantity (log10 Ki), values below.
Log10 applied to Ki; unit prior to transform: pM.

Known results for compounds:
1. CCNC(=O)Oc1ccc2c(c1)C13CCCCC1C(C2)N(CC1CCC1)CC3 (stereo not given)
3.57
2. O=C(NCc1ccccc1)Oc1ccc2c(c1)C13CCCCC1C(C2)N(CC1CCC1)CC3 (single isomer, unassigned; (-))
2.85
3. CCNC(=O)Oc1ccc2c(c1)C13CCCCC1C(C2)N(C)CC3 (stereo not given)
3.68
4. CNC(=O)Oc1ccc2c(c1)C13CCCCC1C(C2)N(CC1CCC1)CC3 (single isomer, unassigned; (-))
3.08

Fill in: log10 Ki on UniProt:P35372, entry O=C(Nc1ccccc1)Oc1ccc2c(c1)C13CCCCC1C(C2)N(CC1CCC1)CC3 (single isomer, unassigned; (-))
2.08

Report log10 Ki from UniProt:P35372 testing of O=C(Nc1ccccc1)Oc1ccc2c(c1)C13CCCCC1C(C2)N(CC1CC1)CC3 (stereo not given)
2.04

# assay system UniProt:P35372: give log10 Ki of CNC(=O)Oc1ccc2c(c1)C13CCCCC1C(C2)N(CC1CC1)CC3 (single isomer, unassigned; (-))
3.72

---

Let's look at some molecules and their measured Ratio Ki.
# SUBJECT OF TEST: Opioid receptors; mu & kappa (Homo sapiens) (UniProt P41145+P35372)
# Sequence (P41145 whole entry, looked up, one chain of several): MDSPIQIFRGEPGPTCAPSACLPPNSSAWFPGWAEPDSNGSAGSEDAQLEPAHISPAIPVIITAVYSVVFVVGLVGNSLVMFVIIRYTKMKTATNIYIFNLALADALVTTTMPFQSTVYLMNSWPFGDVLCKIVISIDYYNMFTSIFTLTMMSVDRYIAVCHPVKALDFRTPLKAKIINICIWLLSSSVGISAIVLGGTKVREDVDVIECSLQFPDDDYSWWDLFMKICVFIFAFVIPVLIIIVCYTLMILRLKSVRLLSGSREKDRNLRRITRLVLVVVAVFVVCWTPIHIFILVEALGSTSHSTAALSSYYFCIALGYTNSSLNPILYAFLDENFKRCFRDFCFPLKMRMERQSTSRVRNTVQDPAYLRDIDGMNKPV
# ASSAY NAME: Selectivity for kappa opioid receptor over mu opioid receptor expressed in CHO cells
# Format: cell-based
The answer should be a number; do not append a unit.

Past entries and their recorded results:
1. O=C(Nc1ccccc1)Oc1ccc2c(c1)C13CCCCC1C(C2)N(CC1CC1)CC3 (stereo not given)
2.4
2. CCNC(=O)Oc1ccc2c(c1)C13CCCCC1C(C2)N(C)CC3 (stereo not given)
0.1
3. CNC(=O)Oc1ccc2c(c1)C13CCCCC1C(C2)N(C)CC3 (stereo not given)
0.4

Name the recorded Ratio Ki of the molecule listed here: O=C(Nc1ccccc1)Oc1ccc2c(c1)C13CCCCC1C(C2)N(CC1CCC1)CC3 (single isomer, unassigned; (-))
2

Please look at this molecule and report its Ratio Ki: CNC(=O)Oc1ccc2c(c1)C13CCCCC1C(C2)N(CC1CC1)CC3 (single isomer, unassigned; (-))
1.6

Please report the measured Ratio Ki for CCNC(=O)Oc1ccc2c(c1)C13CCCCC1C(C2)N(CC1CC1)CC3 (single isomer, unassigned; (-))
2

Return value of Ratio Ki for input CCNC(=O)Oc1ccc2c(c1)C13CCCCC1C(C2)N(CC1CCC1)CC3 (stereo not given) , no commentary.
0.9

Item O=C(NCc1ccccc1)Oc1ccc2c(c1)C13CCCCC1C(C2)N(CC1CCC1)CC3 (single isomer, unassigned; (-)) : provide Ratio Ki
0.4

Query Ratio Ki for CNC(=O)Oc1ccc2c(c1)C13CCCCC1C(C2)N(CC1CCC1)CC3 (single isomer, unassigned; (-))
1.5

Quickly give me recorded Ratio Ki for O=C(NCc1ccccc1)Oc1ccc2c(c1)C13CCCCC1C(C2)N(CC1CC1)CC3 (single isomer, unassigned; (-))
2

---

Readings of log10 of IC50 for the listed compounds
# SUBJECT OF TEST: Mu-type opioid receptor (Homo sapiens, UniProt P35372)
# Sequence (P35372 whole entry): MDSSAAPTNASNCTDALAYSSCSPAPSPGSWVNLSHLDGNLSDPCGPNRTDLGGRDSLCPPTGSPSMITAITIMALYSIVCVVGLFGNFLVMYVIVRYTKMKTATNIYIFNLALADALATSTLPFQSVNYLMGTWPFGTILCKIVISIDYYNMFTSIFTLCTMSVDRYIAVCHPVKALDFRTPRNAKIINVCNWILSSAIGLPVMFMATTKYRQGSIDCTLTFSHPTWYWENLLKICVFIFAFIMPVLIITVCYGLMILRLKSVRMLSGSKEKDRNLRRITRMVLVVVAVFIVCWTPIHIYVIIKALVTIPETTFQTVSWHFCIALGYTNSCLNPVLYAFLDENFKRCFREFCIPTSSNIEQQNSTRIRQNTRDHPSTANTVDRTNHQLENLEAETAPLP
# ASSAY NAME: Antagonist activity at human mu opioid receptor expressed in CHO cells assessed as DAMGO-stimulated [35S]GTP-gamma-S binding
# log10 transformed; quantity=IC50; unit=nM

As a guide, the following entries are already answered.
1) O=C(Nc1ccccc1)Oc1ccc2c(c1)C13CCCCC1C(C2)N(CC1CCC1)CC3 (single isomer, unassigned; (-))
1.34
2) O=C(NCc1ccccc1)Oc1ccc2c(c1)C13CCCCC1C(C2)N(CC1CC1)CC3 (single isomer, unassigned; (-))
1.20
3) CCNC(=O)Oc1ccc2c(c1)C13CCCCC1C(C2)N(CC1CC1)CC3 (single isomer, unassigned; (-))
1.00

Answer with the recorded log10 of IC50 for the compound listed here: O=C(Nc1ccccc1)Oc1ccc2c(c1)C13CCCCC1C(C2)N(CC1CC1)CC3 (stereo not given)
0.81

Input O=C(NCc1ccccc1)Oc1ccc2c(c1)C13CCCCC1C(C2)N(CC1CCC1)CC3 (single isomer, unassigned; (-)) , output reported log10 of IC50.
2.41
